# Residual activity values compiled below
tested on: HPPD polypeptides (wild-type SEQ ID NO:1 and mutants); details: in the presence of Cmpd. 1, 15 μM inhibitor, high substrate concentration; kapp normalized to kapp without inhibitor

MOLECULE: 31 (protein, mutant HPPD polypeptide) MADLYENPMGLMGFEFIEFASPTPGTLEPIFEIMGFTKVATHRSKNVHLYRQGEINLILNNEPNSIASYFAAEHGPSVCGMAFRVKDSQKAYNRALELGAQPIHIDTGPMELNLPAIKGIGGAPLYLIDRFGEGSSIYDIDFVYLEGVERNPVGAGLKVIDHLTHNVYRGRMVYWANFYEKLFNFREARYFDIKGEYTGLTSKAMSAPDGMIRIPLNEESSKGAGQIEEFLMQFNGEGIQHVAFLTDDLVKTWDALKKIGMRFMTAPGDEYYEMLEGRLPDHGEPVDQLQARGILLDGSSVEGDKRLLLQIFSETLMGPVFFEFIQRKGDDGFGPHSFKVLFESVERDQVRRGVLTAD
Residual activity: 40%
--
MOLECULE: 17 (protein, mutant HPPD polypeptide) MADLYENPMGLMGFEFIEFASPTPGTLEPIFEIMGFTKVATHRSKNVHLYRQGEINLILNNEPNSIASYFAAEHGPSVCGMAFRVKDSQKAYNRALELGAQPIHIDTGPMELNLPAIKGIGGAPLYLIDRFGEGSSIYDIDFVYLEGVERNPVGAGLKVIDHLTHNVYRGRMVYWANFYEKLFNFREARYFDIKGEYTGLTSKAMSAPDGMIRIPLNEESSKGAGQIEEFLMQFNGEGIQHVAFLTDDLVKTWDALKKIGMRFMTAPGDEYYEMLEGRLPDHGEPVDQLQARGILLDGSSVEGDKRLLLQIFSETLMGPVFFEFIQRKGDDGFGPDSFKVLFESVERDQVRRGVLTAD
Residual activity: 43%
--
MOLECULE: 7 (protein, mutant HPPD polypeptide) MADLYENPMGLMGFEFIEFASPTPGTLEPIFEIMGFTKVATHRSKNVHLYRQGEINLILNNEPNSIASYFAAEHGPSVCGMAFRVKDSQKAYNRALELGAQPIHIDTGPMELNLPAIKGIGGAPLYLIDRFGEGSSIYDIDFVYLEGVERNPVGAGLKVIDHLTHNVYRGRMVYWANFYEKLFNFREARYFDIKGEYTGLTSKAMSAPDGMIRIPLNEESSKGAGQIEEFLMQFNGEGIQHVAFLTDDLVKTWDALKKIGMRFMTAPPDTYYEMLEGRLPDHGEPVDQLQARGILLDGSSVEGDKRLLLQIFSETLMGPVFFEFIQRKGDDGFGPDSFKALFESIERDQVRRGVLTAD
Residual activity: 27%
--
MOLECULE: 16 (protein, mutant HPPD polypeptide) MADLYENPMGLMGFEFIEFASPTPGTLEPIFEIMGFTKVATHRSKNVHLYRQGEINLILNNEPNSIASYFAAEHGPSVCGMAFRVKDSQKAYNRALELGAQPIHIDTGPMELNLPAIKGIGGAPLYLIDRFGEGSSIYDIDFVYLEGVERNPVGAGLKVIDHLTHNVYRGRMVYWANFYEKLFNFREARYFDIKGEYTGLTSKAMSAPDGMIRIPLNEESSKGAGQIEEFLMQFNGEGIQHVAFLTDDLVKTWDALKKIGMRFMTAPSDSYYEMLEGRLPDHGEPVDQLQARGILLDGSSVEGDKRLLLQIFSETLMGPVFFEFIQRKGDDGFGPDSFKVLFESKERDQVRRGVLTAD
Residual activity: 45%
